Values from patent US20110143948A1

tested on: ncRNAs (SEQ ID NO 28-89); experiment: ncRNA arrays of melanocytes, keratinocytes, normal skin, melanoma cell lines and patient samples; parameters: species or system human; settings: melanoma patient 3 sample compared to normal skin
Provide the reported ncRNA array expression, patient 3 of each item.
Lab note: jot down the number only; don't add units.

query: Find the measured ncRNA array expression, patient 3 of SEQ ID NO 29 (TTAAATACATGTTTCTAATATTTTAGTGTTTTGTATTTAGGTTATTTATTCTTTGTATCT; DNA, backbone and methylation of C not given here; listed as Homo sapiens) and report it.
result: 2.485

query: Find the measured ncRNA array expression, patient 3 of SEQ ID NO 39 (TGATCCTGTAAATCATGTTTTTGTTTATTCCCCAACACTAACCTCACTCCTTTACTATTC; listed as DNA, chemistry not given here; listed as Homo sapiens) and report it.
result: −0.7852

query: Find the measured ncRNA array expression, patient 3 of SEQ ID NO 80 (CACACAGCCCAGTCTGCCTGTGATGGTAATATAAATCAAACCAGGGACCCAAGAGCCCAG; listed as DNA, chemistry not given here; listed as Homo sapiens) and report it.
result: −1.487

query: Find the measured ncRNA array expression, patient 3 of SEQ ID NO 45 (ATTTAGAGAACATTTAAATCTGTAAGGAAGAAAATAATAACGACTCACAATTACATCATT; listed as DNA, chemistry not given here; listed as Homo sapiens) and report it.
result: −1.56

query: Find the measured ncRNA array expression, patient 3 of SEQ ID NO 30 (ATTCCAAGGCCTATTAAAATTTCTGAGCATTGCCCATTTCTTTTGCTTTATCTGTAGGAC; DNA, backbone and methylation of C not given here; listed as Homo sapiens) and report it.
result: 3.169

query: Find the measured ncRNA array expression, patient 3 of SEQ ID NO 74 (TATATTACAGGAGTTGTCTATACGATTATAGTACCTGATTCTTTGGACATATCATTGAAC; listed as DNA, chemistry not given here; listed as Homo sapiens) and report it.
result: 1.879

query: Find the measured ncRNA array expression, patient 3 of SEQ ID NO 43 (CTTAATCCACATTTGTTTTGAATTTTTCTGATTCCTATAGTACCATACTCTGATGCCTAT; listed as DNA, chemistry not given here; listed as Homo sapiens) and report it.
result: −1.272

query: Find the measured ncRNA array expression, patient 3 of SEQ ID NO 77 (AAGTTTCCACGGCAGGTTCTCGTAGCACCTTTGGTCAAGAACTGAAGGGGCCTTTAGATG; listed as DNA, chemistry not given here; listed as Homo sapiens) and report it.
result: −1.9159

query: Find the measured ncRNA array expression, patient 3 of SEQ ID NO 88 (CTGTTGCTTATTCTGGGAGCCCAATCCTAGGCTGAGGGAGGTGGGCGCGGGGCTGTTTAA; listed as DNA, chemistry not given here; listed as Homo sapiens) and report it.
result: −1.118

query: Find the measured ncRNA array expression, patient 3 of SEQ ID NO 56 (AAAAAATGAGGCAATCTCATCCCGAAACTATTTAAAACTACTCTCCTCTCTCTTGATAAA; listed as DNA, chemistry not given here; listed as Homo sapiens) and report it.
result: −1.535
